- Tested on: Pseudomonas aeruginosa UI-18
- protocol.description: In vitro antibacterial activity, microtitration dilution method (MIC)
- Format: cell-based
- experimental.parameters: UI18; Pseudomonas aeruginosa UI-18, microtitration dilution; read-out: Minimal Inhibitory Concentration MIC
metric.name: MIC (µg/mL)
Note: unit µg/mL is implicit; provide only the numeric part.

Query: Report MIC for "CCn1cc(C(=O)O)c(=O)c2c(C)c(F)c(N3CCNCC3)c(F)c21" please.
Result: 1.6

Query: Report MIC for Cc1c(F)c(N2CCC(C)(CN)C2)cc2c1c(=O)c(C(=O)O)cn2C1CC1 (centres unmarked) please.
Result: 1.6

Query: Report MIC for Cc1c(F)c(N2CCC(N)C2)nc2c1c(=O)c(C(=O)O)cn2-c1ccc(F)cc1F (centres unmarked) please.
Result: 0.2

Query: Report MIC for "Cc1c(F)c(N2CC[C@@H]([C@H](C)N)C2)nc2c1c(=O)c(C(=O)O)cn2-c1ccc(F)cc1F" please.
Result: 0.2

Others:
Query: Report MIC for Cc1c(F)c(N2CCC(N)C2)c(F)c2c1c(=O)c(C(=O)O)cn2-c1ccc(F)cc1F (centres unmarked) please.
Result: 0.8

Query: Report MIC for Cc1c(F)c(N2CCC(N)C2)c(Cl)c2c1c(=O)c(C(=O)O)cn2C1CC1 (centres unmarked) please.
Result: 0.2

====

- Tested on: Staphylococcus aureus UC-76
- protocol.description: In vitro antibacterial activity, microtitration dilution method (MIC)
- Format: cell-based
- experimental.parameters: UC76; Staphylococcus aureus UC-76, microtitration dilution; read-out: Minimal Inhibitory Concentration MIC
Entries and their MIC
Note: unit µg/mL is implicit; provide only the numeric part.

Query: Report MIC for "Cc1c(F)c(N2CCNCC2)cc2c1c(=O)c(C(=O)O)cn2C1CC1" please.
Result: 0.025

Query: Report MIC for CCn1cc(C(=O)O)c(=O)c2c(C)c(F)c(N3CCC(N)C3)c(F)c21 (centres unmarked) please.
Result: 0.1

====

- Test system: Enterobacter cloacae MA 2646
- protocol.description: In vitro antibacterial activity, microtitration dilution method (MIC)
- Type: cell-based
- experimental.parameters: MA2646; Enterobacter cloacae MA 2646, microtitration dilution; read-out: Minimal Inhibitory Concentration MIC
Entries and their MIC
Note: unit µg/mL is implicit; provide only the numeric part.

Query: Report MIC for Cc1c(F)c(N2CCNCC2)c(F)c2c1c(=O)c(C(=O)O)cn2-c1ccc(F)cc1F [Ex. 14] please.
Result: 0.1

Query: Report MIC for Cc1c(F)c(N2CCC(C)(CN)C2)cc2c1c(=O)c(C(=O)O)cn2-c1ccc(F)cc1F (stereo not drawn) [Ex. 17e] please.
Result: 0.4

Query: Report MIC for Cc1c(F)c(N2CCNCC2)nc2c1c(=O)c(C(=O)O)cn2C1CC1 [Ex. 19] please.
Result: 0.025

Query: Report MIC for Cc1c(F)c(N2CC[C@@H]([C@H](C)N)C2)nc2c1c(=O)c(C(=O)O)cn2-c1ccc(F)cc1F [Ex. 23] please.
Result: 0.2

Query: Report MIC for Cc1c(F)c(N2CCNCC2)cc2c1c(=O)c(C(=O)O)cn2C1CC1 [Ex. 6] please.
Result: 0.013

====

- Test system: Escherichia coli Vogel
- protocol.description: In vitro antibacterial activity, microtitration dilution method (MIC)
- Format: cell-based
- experimental.parameters: Escherichia coli Vogel, microtitration dilution; read-out: Minimal Inhibitory Concentration MIC
Entries and their MIC
Note: unit µg/mL is implicit; provide only the numeric part.

Query: Report MIC for Cc1c(F)c(N2CCC(N)C2)cc2c1c(=O)c(C(=O)O)cn2-c1ccc(F)cc1F (centres unmarked) [Ex. 17c] please.
Result: 0.05

Query: Report MIC for "Cc1c(F)c(N2CCNCC2)cc2c1c(=O)c(C(=O)O)cn2-c1ccc(F)cc1F" please.
Result: 0.05

Query: Report MIC for "Cc1c(F)c(N2CCNCC2)cc2c1c(=O)c(C(=O)O)cn2C1CC1" please.
Result: 0.013

Query: Report MIC for Cc1c(F)c(N2CCC(N)C2)c(Cl)c2c1c(=O)c(C(=O)O)cn2C1CC1 (centres unmarked) please.
Result: 0.013

Query: Report MIC for Cc1c(F)c(N2CC(C)NC(C)C2)c(F)c2c1c(=O)c(C(=O)O)cn2-c1ccc(F)cc1F (centres unmarked) [Ex. 14a] please.
Result: 0.4

Query: Report MIC for Cc1c(F)c(N2CCC(N)C2)cc2c1c(=O)c(C(=O)O)cn2C1CC1 (centres unmarked) please.
Result: 0.025

Others:
Query: Report MIC for Cc1c(F)c(N2CCC(N)C2)c(F)c2c1c(=O)c(C(=O)O)cn2-c1ccc(F)cc1F (centres unmarked) please.
Result: 0.025

Query: Report MIC for Cc1c(F)c(N2CCC(C)(CN)C2)c(F)c2c1c(=O)c(C(=O)O)cn2C1CC1 (centres unmarked) please.
Result: 0.05
